# Tested on: orientation hypermotility
# method description: Sedative action in the mouse (inhibition of orientation hypermotility)
# Type: in vivo, mouse (female NMRI)
# measurement setup: Mus musculus, 0.5 h; female NMRI mice, oral; dose giving 50% reduction in orientation hypermotility, measured from 30 min after administration over 30 min
property label: ED50 (mg/kg)
Number only, in mg/kg; omit the unit.

Tested on orientation hypermotility: CN1CCN(C2=Nc3cc(F)ccc3C(=CC#N)c3cscc32)CC1 (mixture of isomers) . Observed ED50: 3.27

* * *

# Test system: orientation hypermotility
# method description: Sedative action in the mouse (inhibition of orientation hypermotility)
# Type: in vivo, mouse (female NMRI)
# measurement setup: Mus musculus, 0.5 h; female NMRI mice, oral; dose giving 50% reduction in orientation hypermotility, measured from 30 min after administration over 30 min
# Lookup of reported log10 ED50 keyed by entry
# values: log10(ED50), units mg/kg

// recorded log10 ED50 for CN1CCN(C2=Nc3cc(Cl)ccc3C(=CC#N)c3cscc32)CC1 (mixture of isomers) : -0.05

* * *

# Lookup of reported ED50 keyed by entry
# Tested on: orientation hypermotility
# method description: Sedative action in the mouse (inhibition of orientation hypermotility)
# Assay type: in vivo, mouse (female NMRI)
# measurement setup: Mus musculus, 0.5 h; female NMRI mice, oral; dose giving 50% reduction in orientation hypermotility, measured from 30 min after administration over 30 min
Number only, in mg/kg; omit the unit.

Below: 5 molecules and their reported ED50.
molecule	property label	result number
CN1CCN(C2=Nc3ccccc3/C(=C/C#N)c3cscc32)CC1 [Example 1 (cis)]	ED50	0.35
Cc1ccc2c(c1)N=C(N1CCN(C)CC1)c1cscc1C2=CC#N (mixture of isomers)	ED50	3.75
CN1CCN(C2=Nc3ccccc3/C(=C\C#N)c3cscc32)CC1 [1 (trans)]	ED50	5.1
CN1CCN(C2=Nc3cc(Cl)ccc3Nc3ccccc32)CC1 [Clozapine, clozapine, reference compound]	ED50	3.8
CN1CCN(C2=Nc3ccccc3C(=CC#N)c3cscc32)CC1 (mixture of isomers)	ED50	0.89

Tested on orientation hypermotility: CCN1CCN(C2=Nc3ccccc3C(=CC#N)c3cscc32)CC1 (mixture of isomers) . Observed ED50: 0.81
